- protocolDetails: NCI Yeast Anticancer Drug Screen. Data for the wt2 strain (AID 169);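 further: 0% = growth of vehicle-treated yeast cultures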
- measurementSetup: S. cerevisiae wt2 strain growth inhibition; at 3.7 µM; active compounds read high
- Procedure: Growth inhibition of yeast strains with defined genetic alterations is measured as a screen for potential anti-cancer activity. Selected strains with alterations in DNA damage repair or cell cycle control were exposed to compounds and growth inhibition was measured relative to vehicle treated controls. The strain used in this assay is wt2
About 79,000 compounds went through this panel and 15% of them were active in at least one assay; those are over-represented in the sample as a whole.
metricName: growth inhibition (%)
// units = %; emit number, no label

Worked cases, growth inhibition given:
Q: Which measured growth inhibition value corresponds to `Nc1cc(N)c(N=Nc2cccc3c(S(=O)(=O)O)cccc23)cc1N=Nc1cc([N+](=O)[O-])ccc1O` ?
A: -11

Q: Item under review: c1ccc2c(OCC3CO3)cccc2c1 (configuration not stated) . Reported growth inhibition?
A: 7

Q: Return reported growth inhibition; argument: `C/C=C/SC(=Nc1ccccc1)Nc1ccccc1`
A: -3

Q: Consider the compound CN(C)CCOC1(Cc2ccc(F)cc2)CCC(C(C)(C)C)CC1 (configuration not stated) and give its measured growth inhibition.
A: -1

Q: Endpoint output: growth inhibition of `CN(C)/C=C/c1nnc([N+](=O)[O-])s1` . Value?
A: -1

Others:
Q: Item `COc1c(O)c(C=O)c(Br)c(C=O)c1O` has what recorded growth inhibition?
A: 2

Q: growth inhibition lookup needed for `Cc1cc(-c2cc(C)c(O)c(C(C)(C)C)c2)cc(C(C)(C)C)c1O` , thanks.
A: -18

Q: Field request: growth inhibition | item: `c1ccc2[nH]c(-c3cscn3)nc2c1`
A: -3
